This collection of values is drawn from PubChem BioAssay AID1159580.

assay-method-text: chemical genetic growth profiling, strain panel (AID 1159580);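 further: tested at 20 µM; growth read once vehicle control cultures reached saturation at 30 °C; 1 = growth at the plate median or of vehicle wells; lower values mean less growth of the strain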
test-settings: S. cerevisiae deletion strains, growth OD, locus YOR136W, strain idh2, stronger effect = lower value
In all, about 5,500 compounds went through this assay and about 2,000 (36%) were called active. Inconclusive results (about 18%) are left out. This is one part of the list.
outcome-measure: normalized growth
One number for each entry.

Example entries and their recorded answers appear below.
[
  {
    "compound": "CCN(CC)CCOC(=O)C(Cc1cccc2ccccc12)CC1CCCO1 (stereo unspecified)",
    "outcome-measure": "normalized growth",
    "data-value": 1.01
  },
  {
    "compound": "CC(=O)C1=C(O)C2C3c4c[nH]c5cccc(c45)CC3C(C)(C)N2C1=O (stereo unspecified)",
    "outcome-measure": "normalized growth",
    "data-value": 1.01
  },
  {
    "compound": "O=C(O)CCC(=O)c1ccc(-c2ccccc2)cc1",
    "outcome-measure": "normalized growth",
    "data-value": 0.968
  },
  {
    "compound": "Nc1nc(N)c2nc(CNc3ccc(C(=O)NC(CCC(=O)O)C(=O)O)cc3)cnc2n1 (stereo unspecified)",
    "outcome-measure": "normalized growth",
    "data-value": 0.994
  },
  {
    "compound": "CCCNC(C)C(=O)Nc1ccccc1C (stereo unspecified)",
    "outcome-measure": "normalized growth",
    "data-value": 0.992
  },
  {
    "compound": "Nc1nc2c(c(=O)[nH]1)N(C=O)C(CNc1ccc(C(=O)N[C@@H](CCC(=O)O)C(=O)O)cc1)CN2 (stereo partly specified)",
    "outcome-measure": "normalized growth",
    "data-value": 0.99
  },
  {
    "compound": "C=CCN1CC[C@]23c4c5ccc(O)c4OC2C(=O)CC[C@@]3(O)[C@H]1C5 (stereo partly specified)",
    "outcome-measure": "normalized growth",
    "data-value": 0.995
  },
  {
    "compound": "Nc1nc2ncc(CNc3ccc(C(=O)N[C@@H](CCC(=O)O)C(=O)O)cc3)nc2c(=O)[nH]1",
    "outcome-measure": "normalized growth",
    "data-value": 0.987
  }
]

Could you report normalized growth for every entry in the following list?
1. C=CC1=C(C)/C(=C/c2[nH]c(Cc3[nH]c(/C=C4\NC(=O)C(C)=C4C=C)c(C)c3CCC(=O)O)c(CCC(=O)O)c2C)NC1=O
2. CC(=O)O[C@H]1C[C@@H](OC(C)=O)C(C)(C)C2C[C@@H](OC(C)=O)[C@]3(C)C(CC[C@@]4(C)[C@H](c5ccoc5)C(=O)[C@H]5O[C@]543)[C@]21C (stereo partly specified)
3. CCCN(CCC)C(=O)C(CCC(=O)O)NC(=O)c1ccccc1 (stereo unspecified)
4. COc1cc(C)c2c(c1C=O)Oc1c(c(C)c(O)c3c1C(O)OC3=O)OC2=O (stereo unspecified)
5. CN(C)CCCO[C@H]1[C@@H](C(O)CO)OC2OC(C)(C)O[C@@H]21 (stereo partly specified)
6. CN(Cc1cnc2nc(N)nc(N)c2n1)c1ccc(C(=O)NC(CCC(=O)O)C(=O)O)cc1 (stereo unspecified)
7. O=C(O)P(=O)(O)O

1. 1.02
2. 1.01
3. 0.989
4. 0.987
5. 0.966
6. 0.995
7. 0.968
